- Tested on: U251 CNS
- ASSAY_METHOD_TEXT: NCI-60 one-dose screen, 48 h
- RUN_PARAMETERS: 10 µM unless noted
The panel holds about 83,000 compounds, 20% with a hit somewhere; the sample as a whole holds those more often. Active and inactive are the calls of the source. The calls were made as follows: active = growth percent below 10; inactive = the rest.
I would appreciate it if you answered using one of these outcomes: 1 = active, -1 = inactive

Please review the entries below; each comes with its answer.
[
  {
    "COMPOUND": "N#C/C(=C\\c1ccc(Br)cc1)n1nnc2ccc(F)cc21",
    "LABEL": 1
  },
  {
    "COMPOUND": "O=C(CCC(=O)N/N=C/c1ccccc1O)N/N=C/c1ccccc1O",
    "LABEL": -1
  },
  {
    "COMPOUND": "CCOC(=O)c1[nH]c(=O)c2c(C)nc(-c3ccccc3)cc2c1O",
    "LABEL": -1
  },
  {
    "COMPOUND": "CCn1c(=S)[nH]c2c(=O)n(C)c(=O)n(C)c21",
    "LABEL": -1
  },
  {
    "COMPOUND": "O=C(/C=C/c1ccccc1)c1cccc(OCCCOc2cccc(C(=O)/C=C/c3ccccc3)c2)c1",
    "LABEL": -1
  },
  {
    "COMPOUND": "Clc1ccc(Sc2cnc(-c3ccccc3)o2)cc1",
    "LABEL": -1
  }
]

// query Recorded call for `CS(=O)(=O)Nc1cc(-c2ccc3ncnc(Nc4ccc5c(cnn5Cc5ccccn5)c4)c3c2)cnc1Cl` ?
// result -1

// query Please state the recorded outcome for this compound: `C=CCn1c(SCC(=O)Nc2ccc(C(=O)/C=C/c3cc4cc(OC)ccc4nc3Cl)cc2)nnc1-c1ccc(Br)cc1`
// result -1

// query Recorded test call requested for `CCOC(=O)c1cc(-c2ccc([N+](=O)[O-])cc2)n(-c2ccc(C(=O)O)c(O)c2)c1C`
// result -1

====

- System: MALME-3M melanoma
- ASSAY_METHOD_TEXT: NCI-60 one-dose screen, 48 h
- RUN_PARAMETERS: 10 µM unless noted
This is part of a sample that, as a whole, favours compounds with a hit. Of some 83,000 tested, about 20% had one in any assay. Calls of active or inactive are those of the source. The calls were made as follows: active = growth percent below 10; inactive = the rest.
Select the correct class. Options are 1.0 for active, 0.0 for inactive and nothing else.

For orientation, consider the following solved cases.
[
  {
    "COMPOUND": "CCOC(=O)C(=Cc1cccc(Cl)c1)C(=O)OCC",
    "MEASURED_TARGET": "MALME-3M melanoma",
    "LABEL": 1.0
  },
  {
    "COMPOUND": "CCCCC(=O)Nc1ncc(Cc2ccc(Cl)cc2)s1",
    "MEASURED_TARGET": "MALME-3M melanoma",
    "LABEL": 0.0
  },
  {
    "COMPOUND": "CC(=O)[C@@H]1CCC=C2CC[C@]3(C)[C@@H](CC[C@@H]4[C@@]5(C)CCCNC(C)(C)[C@@H]5CC[C@]43C)[C@H]21",
    "MEASURED_TARGET": "MALME-3M melanoma",
    "LABEL": 1.0
  }
]

// query Which outcome was entered for the compound `COc1cc2oc(-c3cccc(NC(=O)c4cccc(Br)c4)c3)cc(=O)c2c(OC)c1OC` in this test?
// result 0.0

// query Tell me the assay call for `CCn1c(=S)sc2c(Nc3ccc(F)cc3)nc(-c3cccnc3)nc21` please.
// result 0.0

====

- Test system: RPMI-8226 leukemia
- ASSAY_METHOD_TEXT: NCI-60 one-dose screen, 48 h
- RUN_PARAMETERS: 10 µM unless noted
About 83,000 compounds went through this panel and 20% of them were active in at least one assay; those are over-represented in the sample as a whole. Activity calls are given as the source filed them. How the source made its calls: active means growth percent below 10; inactive means the rest.
// one of active, inactive, no free text

[
  {
    "COMPOUND": "COc1ccc(C2=Nc3c/c(=C\\c4c(O)[nH]c5ccc(Cl)cc45)ccc3=N2)cc1",
    "LABEL": "inactive"
  },
  {
    "COMPOUND": "COc1cc(CNS(=O)(=O)c2ccc(C)cc2)ccc1OCc1cn(-c2ccc(Br)cc2)nn1",
    "LABEL": "inactive"
  },
  {
    "COMPOUND": "CC1=NN(c2nc(SCC(=O)Nc3nc4ccc(C)cc4s3)nc(-c3ccccc3)c2C#N)C(=O)C1",
    "LABEL": "inactive"
  },
  {
    "COMPOUND": "Cc1ccc(C2=Nc3c(N)ncnc3NC(c3ccc4c(c3)OCO4)C2)cc1 (stereo not given)",
    "LABEL": "inactive"
  },
  {
    "COMPOUND": "CCCC(=O)NC(c1ccc2c(c1)OCO2)c1ccc2cccnc2c1O (stereo not given)",
    "LABEL": "inactive"
  }
]

Lab note: next compound to report on.
// query Record lookup: outcome of this test for `COc1cc(-c2nc3cc(Cl)c(Cl)cc3[nH]2)ccc1OCC(=O)N=Nc1c(O)[nH]c2ccc([N+](=O)[O-])cc12` ?
// result inactive

====

The following molecules are shown together with reported growth values.
- Tested on: SF-295 CNS
- ASSAY_METHOD_TEXT: NCI-60 one-dose screen, 48 h (100 = growth as untreated, 0 = no growth, -100 = all killed)
- RUN_PARAMETERS: 10 µM unless noted
This is part of a sample that, as a whole, favours compounds with a hit. Of some 83,000 tested, about 20% had one in any assay. The source made the active and inactive calls. How the source made its calls: active means growth percent below 10; inactive means the rest.

Please review the entries below; each comes with its answer.
[
  {
    "MOLECULE": "CCOc1ccc(NC(=O)CSc2oc(-c3ccccc3)nc2S(=O)(=O)c2ccc(F)cc2)cc1",
    "QUANTITY_MEASURED": "growth",
    "VAL": "50% (inactive)"
  },
  {
    "MOLECULE": "CCN1C(=O)N(CC)C2C1NN=c1s/c(=C\\c3cccc([N+](=O)[O-])c3)c(=O)n12 (centres undefined)",
    "QUANTITY_MEASURED": "growth",
    "VAL": "15% (inactive)"
  },
  {
    "MOLECULE": "COC1C[C@H](O[C@@H]2C[C@H](O[C@@H]3C[C@H](O[C@@H]4C(=O)c5c(cc6cc(O[C@H]7C[C@@H](O[C@H]8C[C@@H](O)[C@H](O)C(C)O8)[C@H](O)C(C)O7)c(C)c(O)c6c5O)C[C@H]4C(OC)C(=O)[C@@H](O)[C@@H](C)O)OC(C)[C@H]3O)OC(C)[C@@H]2O)OC(C)[C@@H]1O (some centres undefined)",
    "QUANTITY_MEASURED": "growth",
    "VAL": "7.37% (active)"
  },
  {
    "MOLECULE": "CCCCC[C@@H]1Cc2cc(O)c(C(=O)O)c3c2[C@H](C[C@]2(OC[C@@H](CC(=O)[C@@](C)(CC)C(=O)OC)[C@@H]2C)O3)O1",
    "QUANTITY_MEASURED": "growth",
    "VAL": "121% (inactive)"
  },
  {
    "MOLECULE": "CN1CCN(Cc2ccc(NC(=O)c3cncc(C#Cc4cnc(N)c5ccccc45)c3)cc2C(F)(F)F)CC1",
    "QUANTITY_MEASURED": "growth",
    "VAL": "-87.4% (active)"
  },
  {
    "MOLECULE": "C=C(C)[C@@H]1CC[C@]2(C(=O)NCC#CCN3CCN(C)CC3)CC[C@]3(C)[C@H](CC[C@@H]4[C@@](C)(CCC#N)[C@H](C(=C)C)CC[C@]43C)[C@@H]12",
    "QUANTITY_MEASURED": "growth",
    "VAL": "94.2% (inactive)"
  },
  {
    "MOLECULE": "N#Cc1cccc(-c2c(-c3ccc4ccccc4c3)oc3ccccc3c2=O)c1",
    "QUANTITY_MEASURED": "growth",
    "VAL": "34.2% (inactive)"
  },
  {
    "MOLECULE": "CCOC(=O)C(=Cc1cccc(Cl)c1)C(=O)OCC",
    "QUANTITY_MEASURED": "growth",
    "VAL": "77.2% (inactive)"
  },
  {
    "MOLECULE": "CC(C)CCNC(=O)Cn1cccc(NC(=O)OCc2ccccc2)c1=O",
    "QUANTITY_MEASURED": "growth",
    "VAL": "107% (inactive)"
  },
  {
    "MOLECULE": "O=C(O)CCCN1C(=O)/C(=C/C(Cl)=C/c2ccccc2)SC1=S",
    "QUANTITY_MEASURED": "growth",
    "VAL": "49.5% (inactive)"
  }
]

// query Please report growth for the following molecule: `C=C(C)[C@@H]1CC[C@]2(C(=O)O)CC[C@]3(C)[C@H](CC[C@@H]4[C@@]5(C)C[C@@H](Cc6cn(CCO[C@@H]7O[C@H](COC(C)=O)[C@H](OC(C)=O)[C@H](OC(C)=O)[C@H]7OC(C)=O)nn6)[C@H](O)C(C)(C)[C@@H]5CC[C@]43C)[C@@H]12`
// result 76.7% (inactive)

// query Fill in reported growth for this entry: `CN1CCN(Cc2ccc3c(NNC(=O)c4ccccc4)nc4cc(F)ccc4n23)CC1`
// result 16.2% (inactive)

// query Report growth for `Cc1cccnc1NC(=S)Nc1ncccc1C`
// result 81.2% (inactive)

// query Identify measured growth associated with `CC(=O)[C@@H]1CCC=C2CC[C@]3(C)[C@@H](CC[C@@H]4[C@@]5(C)CCCNC(C)(C)[C@@H]5CC[C@]43C)[C@H]21`
// result -84.7% (active)

// query Indicate its recorded growth; the molecule in question is `O=C(CCC(=O)N/N=C/c1ccccc1O)N/N=C/c1ccccc1O`
// result 89.6% (inactive)

// query Quick one: give measured growth for `COc1ccc2cc(C(=O)c3coc4ccc(O)cc34)ccc2c1`
// result 105% (inactive)

// query Please give the documented growth of COc1cc2c(c(OC)c1OC)CCC(c1cccc(C(=O)Nc3cccc(Br)c3)c1)O2 (centres undefined)
// result 64.5% (inactive)

// query Identify measured growth associated with `CCN1CC(=O)N(/N=C2\C(=O)Nc3ccccc32)C1=S`
// result 96.6% (inactive)

// query # return recorded growth for entry `O=C(NNC(=O)c1ccc(-n2cc(-c3ccccc3)nn2)cc1)Nc1ccccc1`
// result 101% (inactive)
